target: Dual specificity mitogen-activated protein kinase kinase 1 (Mus musculus, UniProt P31938); test: Inhibition of MEK1 in mouse C26 cells assessed as inhibition of ERK1/2 phosphorylation incubated for 1 hr by Western blotting
Sequence (P31938 whole entry): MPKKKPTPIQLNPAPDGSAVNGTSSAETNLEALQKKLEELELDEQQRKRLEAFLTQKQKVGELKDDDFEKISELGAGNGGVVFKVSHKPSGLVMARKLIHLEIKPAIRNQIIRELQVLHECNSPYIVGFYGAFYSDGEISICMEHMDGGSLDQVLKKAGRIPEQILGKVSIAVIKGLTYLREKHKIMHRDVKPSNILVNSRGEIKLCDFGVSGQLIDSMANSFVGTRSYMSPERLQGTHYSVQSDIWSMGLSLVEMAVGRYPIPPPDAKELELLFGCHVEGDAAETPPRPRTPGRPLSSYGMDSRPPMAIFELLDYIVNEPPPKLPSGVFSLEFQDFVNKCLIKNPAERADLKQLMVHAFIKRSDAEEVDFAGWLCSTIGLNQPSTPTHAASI
readout: pIC50
Give bare numbers, as −log10 of the molar value.

What value of measured pIC50 is listed for `CNCCONC(=O)c1ccc(F)c(F)c1Nc1ccc(I)cc1F` ?
7.70

---

assay: Inhibition of PI3K (unknown origin) assessed as reduction in lipid kinase activity by fluorescence-based Adapta TR-FRET assay; parameters: species or system Homo sapiens
readout: IC50 (nM)
One number for each entry, in nM.

* O=C(NOCCNCCCCS(=O)(=O)N1CCN(c2nc(N3CCOCC3)nc(-n3c(C(F)F)nc4ccccc43)n2)CC1)c1ccc(F)c(F)c1Nc1ccc(I)cc1F | 285

Next item in the queue.
What value of measured IC50 is listed for `O=C(NOCCOCCOCCOCCN1CCN(c2nc(N3CCOCC3)nc(-n3c(C(F)F)nc4ccccc43)n2)CC1)c1ccc(F)c(F)c1Nc1ccc(I)cc1F` ?
191
